The values you see were collected from paper PMC6468299.

format: in vivo, Sprague Dawley rats; details: rat heart; revusiran (STC), single 30 mg/kg sc
Endpoint label: Cmax

Entry Nc1nc2c(ncn2[C@@H]2O[C@H](CO)[C@@H](O)[C@H]2F)c(=O)[nH]1 [2′-F-G, 2′-F-guanosine] has what Cmax?
< 500 nM

----------
molecular target: human mitochondrial DNA polymerase γ (Pol-γ exo-mutant) (Homo sapiens, UniProt P54098, D198A/E200A); assay: Pol-γ primer extension; format: biochemical; conditions: Native:F ratio 1:1
Marks after values point to notes of the source that are not given here.
Endpoint label: % 2′-F product

Entry O=c1[nH]c(=O)n([C@@H]2O[C@H](COP(=O)(O)OP(=O)(O)OP(=O)(O)O)[C@@H](O)[C@@H]2F)cc1I [FIAU-TP, fialuridine triphosphate, reference compound] has what % 2′-F product?
4.5^b %

----------
What % 2′-F product was measured for each of the following?
Target: human mitochondrial DNA polymerase γ (Pol-γ exo-mutant) (Homo sapiens, UniProt P54098, D198A/E200A)
Sequence (P54098 26-1239 D198A/E200A limits assumed): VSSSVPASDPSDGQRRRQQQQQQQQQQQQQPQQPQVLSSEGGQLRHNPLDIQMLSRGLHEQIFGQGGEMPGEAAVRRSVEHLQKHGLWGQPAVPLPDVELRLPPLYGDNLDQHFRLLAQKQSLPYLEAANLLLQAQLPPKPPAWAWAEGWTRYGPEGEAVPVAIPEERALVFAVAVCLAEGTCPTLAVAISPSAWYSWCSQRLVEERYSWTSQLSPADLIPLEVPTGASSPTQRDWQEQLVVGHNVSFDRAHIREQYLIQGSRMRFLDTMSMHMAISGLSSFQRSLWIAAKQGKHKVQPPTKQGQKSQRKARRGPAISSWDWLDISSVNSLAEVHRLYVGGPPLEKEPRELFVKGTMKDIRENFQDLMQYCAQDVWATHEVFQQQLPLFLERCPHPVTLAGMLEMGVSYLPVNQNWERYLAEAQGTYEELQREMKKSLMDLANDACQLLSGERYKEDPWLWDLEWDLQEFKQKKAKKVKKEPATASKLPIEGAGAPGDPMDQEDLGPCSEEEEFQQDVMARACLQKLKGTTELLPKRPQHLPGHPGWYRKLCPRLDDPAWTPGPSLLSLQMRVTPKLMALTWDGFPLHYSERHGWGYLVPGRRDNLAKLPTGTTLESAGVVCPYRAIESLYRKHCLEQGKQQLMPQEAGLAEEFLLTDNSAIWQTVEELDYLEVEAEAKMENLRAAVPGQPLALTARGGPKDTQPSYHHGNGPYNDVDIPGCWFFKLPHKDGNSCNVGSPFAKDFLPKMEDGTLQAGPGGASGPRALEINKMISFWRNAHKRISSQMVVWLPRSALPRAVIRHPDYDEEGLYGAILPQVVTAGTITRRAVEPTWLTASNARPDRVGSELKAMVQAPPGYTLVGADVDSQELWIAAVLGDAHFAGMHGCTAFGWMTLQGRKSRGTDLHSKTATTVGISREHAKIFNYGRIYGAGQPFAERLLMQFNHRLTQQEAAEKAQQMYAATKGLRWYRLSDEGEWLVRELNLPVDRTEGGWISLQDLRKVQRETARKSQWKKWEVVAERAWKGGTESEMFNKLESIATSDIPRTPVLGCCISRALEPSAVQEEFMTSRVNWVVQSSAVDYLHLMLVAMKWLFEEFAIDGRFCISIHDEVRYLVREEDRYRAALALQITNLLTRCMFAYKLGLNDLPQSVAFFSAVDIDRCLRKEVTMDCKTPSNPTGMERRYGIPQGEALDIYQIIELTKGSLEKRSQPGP
Experiment: Pol-γ primer extension
Format: biochemical
Conditions: Native:F ratio 1:10
Marks after values point to notes of the source that are not given here.

Molecule: O=c1ccn([C@@H]2O[C@H](COP(=O)(O)OP(=O)(O)OP(=O)(O)O)[C@@H](O)[C@H]2F)c(=O)[nH]1
% 2′-F product: 2.9^b %
--
Molecule: Nc1ccn([C@@H]2O[C@H](COP(=O)(O)OP(=O)(O)OP(=O)(O)O)[C@@H](O)[C@H]2F)c(=O)n1
% 2′-F product: 4.4^b %

Entry O=c1[nH]c(=O)n([C@@H]2O[C@H](COP(=O)(O)OP(=O)(O)OP(=O)(O)O)[C@@H](O)[C@@H]2F)cc1I [FIAU-TP, fialuridine triphosphate, reference compound] has what % 2′-F product?
44.0^b %

----------
What % Native product was measured for each of the following?
target: Human mitochondrial RNA polymerase (POLRMT) (Homo sapiens); test: POLRMT primer extension; format: biochemical; conditions: Native only (no 2′-F-NTP)
Sequence (O00411 42-1230): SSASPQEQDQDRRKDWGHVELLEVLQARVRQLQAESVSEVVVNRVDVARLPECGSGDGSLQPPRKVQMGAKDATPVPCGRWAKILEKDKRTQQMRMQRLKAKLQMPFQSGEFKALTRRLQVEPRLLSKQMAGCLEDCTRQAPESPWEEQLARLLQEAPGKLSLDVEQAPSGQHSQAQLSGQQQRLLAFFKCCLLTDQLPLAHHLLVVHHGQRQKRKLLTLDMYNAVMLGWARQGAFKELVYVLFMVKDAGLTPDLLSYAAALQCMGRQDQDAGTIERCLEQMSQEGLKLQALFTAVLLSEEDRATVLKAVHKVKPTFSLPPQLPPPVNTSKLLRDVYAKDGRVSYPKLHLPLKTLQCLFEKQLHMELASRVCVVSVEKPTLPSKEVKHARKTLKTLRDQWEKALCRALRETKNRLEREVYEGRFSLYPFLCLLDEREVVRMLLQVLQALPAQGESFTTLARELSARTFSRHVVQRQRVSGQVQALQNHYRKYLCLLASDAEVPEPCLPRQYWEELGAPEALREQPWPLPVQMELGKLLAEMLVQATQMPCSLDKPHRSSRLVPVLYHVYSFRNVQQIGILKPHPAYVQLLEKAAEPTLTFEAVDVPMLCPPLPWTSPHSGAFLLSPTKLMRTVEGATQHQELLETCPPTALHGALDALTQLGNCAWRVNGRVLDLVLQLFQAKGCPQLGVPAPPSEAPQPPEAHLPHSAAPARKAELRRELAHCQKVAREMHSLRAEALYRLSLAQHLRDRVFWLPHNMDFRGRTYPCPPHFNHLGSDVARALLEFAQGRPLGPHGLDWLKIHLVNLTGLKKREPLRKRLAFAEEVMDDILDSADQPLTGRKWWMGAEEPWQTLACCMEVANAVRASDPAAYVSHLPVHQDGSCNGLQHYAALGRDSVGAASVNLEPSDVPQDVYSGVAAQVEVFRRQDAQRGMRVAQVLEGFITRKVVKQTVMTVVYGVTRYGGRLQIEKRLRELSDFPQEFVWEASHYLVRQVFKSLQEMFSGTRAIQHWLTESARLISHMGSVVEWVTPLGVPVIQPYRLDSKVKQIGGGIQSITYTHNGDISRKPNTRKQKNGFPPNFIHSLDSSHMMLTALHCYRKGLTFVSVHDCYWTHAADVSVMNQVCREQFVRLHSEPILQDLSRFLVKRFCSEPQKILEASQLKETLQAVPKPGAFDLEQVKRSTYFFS
Marks after values point to notes of the source that are not given here.

State recorded % Native product for all listed compounds.
1. Nc1nc2c(ncn2[C@@H]2O[C@H](COP(=O)(O)OP(=O)(O)OP(=O)(O)O)[C@@H](O)[C@H]2F)c(=O)[nH]1
2. O=c1[nH]c(=O)n([C@@H]2O[C@H](COP(=O)(O)OP(=O)(O)OP(=O)(O)O)[C@@H](O)[C@@H]2F)cc1I [FIAU-TP, fialuridine triphosphate, reference compound]
3. Nc1ccn([C@@H]2O[C@H](COP(=O)(O)OP(=O)(O)OP(=O)(O)O)[C@@H](O)[C@H]2F)c(=O)n1

95.0^a %
34.6^a %
48.8^a %

State recorded % Native product for all listed compounds.
1. O=c1ccn([C@@H]2O[C@H](COP(=O)(O)OP(=O)(O)OP(=O)(O)O)[C@@H](O)[C@H]2F)c(=O)[nH]1
2. Nc1ncnc2c1ncn2[C@@H]1O[C@H](COP(=O)(O)OP(=O)(O)OP(=O)(O)O)[C@@H](O)[C@H]1F

40.8^a %
69.2^a %

----------
tested on: HepG2 (liver); test: Cytotoxicity, sulforhodamine B assay, HepG2; type: cell-based, human; conditions: HepG2, Glucose media, day 11, four doses
Endpoint label: CC50 (µM)
Give bare numbers, in µM.

Observed CC50 on HepG2 (liver) for Nc1nc2c(ncn2[C@@H]2O[C@H](CO)[C@@H](O)[C@H]2F)c(=O)[nH]1 , please.
115

----------
type: in vivo, Sprague Dawley rats; conditions: rat liver; monomer liberated from ALN-TTRSC02 (ESC), single 30 mg/kg sc
Endpoint label: Cmax (nM)
Numbers only, in nM.

Entry Nc1nc2c(ncn2[C@@H]2O[C@H](CO)[C@@H](O)[C@H]2F)c(=O)[nH]1 has what Cmax?
1700

----------
Target: DNA polymerase γ (Pol-γ) (Homo sapiens, UniProt P54098)
Sequence (P54098 1-1239): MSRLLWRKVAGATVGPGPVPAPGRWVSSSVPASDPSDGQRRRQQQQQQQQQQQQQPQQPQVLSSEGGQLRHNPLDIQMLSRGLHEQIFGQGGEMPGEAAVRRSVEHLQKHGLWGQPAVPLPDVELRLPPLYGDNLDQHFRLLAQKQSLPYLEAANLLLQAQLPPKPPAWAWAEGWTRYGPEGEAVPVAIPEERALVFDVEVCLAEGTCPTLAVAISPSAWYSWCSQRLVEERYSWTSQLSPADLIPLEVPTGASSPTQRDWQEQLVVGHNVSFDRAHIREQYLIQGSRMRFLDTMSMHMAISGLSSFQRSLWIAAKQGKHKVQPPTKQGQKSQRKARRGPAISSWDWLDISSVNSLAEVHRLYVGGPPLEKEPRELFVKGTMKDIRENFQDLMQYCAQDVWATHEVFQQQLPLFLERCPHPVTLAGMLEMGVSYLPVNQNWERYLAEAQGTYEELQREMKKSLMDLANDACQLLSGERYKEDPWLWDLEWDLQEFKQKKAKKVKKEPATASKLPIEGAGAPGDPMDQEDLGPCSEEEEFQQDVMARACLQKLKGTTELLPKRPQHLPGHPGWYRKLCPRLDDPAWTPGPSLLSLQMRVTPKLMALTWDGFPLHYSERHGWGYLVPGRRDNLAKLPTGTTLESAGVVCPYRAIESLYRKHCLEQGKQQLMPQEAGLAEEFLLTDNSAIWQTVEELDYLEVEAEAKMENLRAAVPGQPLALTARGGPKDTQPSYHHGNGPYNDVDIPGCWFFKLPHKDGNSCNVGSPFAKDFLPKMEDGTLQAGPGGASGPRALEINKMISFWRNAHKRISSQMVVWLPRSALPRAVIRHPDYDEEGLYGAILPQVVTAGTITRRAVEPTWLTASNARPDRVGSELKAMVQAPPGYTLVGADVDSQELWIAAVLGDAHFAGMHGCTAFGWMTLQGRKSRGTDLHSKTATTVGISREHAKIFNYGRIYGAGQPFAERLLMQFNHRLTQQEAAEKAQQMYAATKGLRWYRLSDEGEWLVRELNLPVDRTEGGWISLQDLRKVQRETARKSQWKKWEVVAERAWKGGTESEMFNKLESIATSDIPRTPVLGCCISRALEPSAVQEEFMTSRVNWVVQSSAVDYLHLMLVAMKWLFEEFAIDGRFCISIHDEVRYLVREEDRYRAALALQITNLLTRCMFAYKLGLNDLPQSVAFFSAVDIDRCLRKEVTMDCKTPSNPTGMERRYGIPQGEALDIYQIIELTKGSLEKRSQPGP
Endpoint label: IC50

Completed entries (count: 5):
Compound: O=c1ccn([C@@H]2O[C@H](COP(=O)(O)OP(=O)(O)OP(=O)(O)O)[C@@H](O)[C@H]2F)c(=O)[nH]1 [2′-F-UTP]
Study system: DNA polymerase γ (Pol-γ) (Homo sapiens, UniProt P54098)
IC50: > 200 µM
--
Compound: O=P(O)(O)OP(=O)(O)OP(=O)(O)OC[C@H]1O[C@@H](n2cnc3c(O)ncnc32)[C@H](F)[C@@H]1O [2′-F-ITP]
Study system: DNA polymerase γ (Pol-γ) (Homo sapiens, UniProt P54098)
IC50: > 200 µM
--
Compound: Nc1ccn([C@@H]2O[C@H](COP(=O)(O)OP(=O)(O)OP(=O)(O)O)[C@@H](O)[C@H]2F)c(=O)n1 [2′-F-CTP]
Study system: DNA polymerase γ (Pol-γ) (Homo sapiens, UniProt P54098)
IC50: > 200 µM
--
Compound: Nc1nc2c(ncn2[C@@H]2O[C@H](COP(=O)(O)OP(=O)(O)OP(=O)(O)O)[C@@H](O)[C@H]2F)c(=O)[nH]1 [2′-F-GTP]
Study system: DNA polymerase γ (Pol-γ) (Homo sapiens, UniProt P54098)
IC50: > 200 µM
--
Compound: O=c1[nH]c(=O)n([C@@H]2O[C@H](COP(=O)(O)OP(=O)(O)OP(=O)(O)O)[C@@H](O)[C@@H]2F)cc1I [FIAU-TP, fialuridine triphosphate, reference compound]
Study system: DNA polymerase γ (Pol-γ) (Homo sapiens, UniProt P54098)
IC50: 1.04 µM

Shifting focus to the compound that follows.
Entry Nc1ncnc2c1ncn2[C@@H]1O[C@H](COP(=O)(O)OP(=O)(O)OP(=O)(O)O)[C@@H](O)[C@H]1F [2′-F-ATP] has what IC50?
> 200 µM
